Entry source: PubChem BioAssay

For each entry below, report its composite z-score value.
assay: small-molecule binders of probe aInhba, primary screen, biochemical, small-molecule microarray, 635/667 nm fluorescence (AID 1148); conditions: higher = more signal;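 further: score merges 667nm spot fluorescence with signal-to-noise for antibody binding to printed compounds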

Input: What measured composite z-score goes with Cc1cc(C)cc(N2C(=O)CSC2c2cccc([N+](=O)[O-])c2)c1 (configuration not stated) ?
Output: 0.0506

Input: What measured composite z-score goes with C=CCOC(=O)[C@H]1[C@@H]2C(=O)O[C@@H](c3ccccc3)[C@@H](c3ccccc3)N2[C@@H](c2ccc(OCCOC(=O)[C@H]3C[C@H]4C(=O)N[C@@H](CCCCNC(C)=O)C(=O)N4[C@H]3c3ccc(O)cc3)cc2)[C@]12C(=O)Nc1ccccc12 ?
Output: -0.146

Input: What measured composite z-score goes with CCOC(=O)C1=CC[C@@H](c2ccc(OCc3ccccc3)c(OC)c2)N(S(=O)(=O)c2ccc(C)cc2)[C@H]1c1ccc(SC)cc1 ?
Output: 0.113

Input: What measured composite z-score goes with COC(=O)[C@@]1(Cc2ccc(F)cc2)[C@H]2c3cc(C(=O)N(C)C)n(CCc4ccc(O)c(OC)c4)c3C[C@H]2CN1C(=O)c1ccccc1 ?
Output: 1.62

Input: What measured composite z-score goes with CCCNC(=O)[C@@]1(c2ccc([N+](=O)[O-])cc2)CC(=O)N(C2CCCCC2)[C@@H]1c1ccc(CO)cc1 ?
Output: 0.138

Input: What measured composite z-score goes with [N-]=[N+]=Nc1ccccc1C[C@]1(C(=O)N2CCOCC2)N=C(c2ccc(OCCCO)cc2)O[C@H]1c1ccccc1 ?
Output: -0.0279

Input: What measured composite z-score goes with COC(=O)[C@@]1(Cc2ccc(OC)cc2)[C@H]2c3cc(C(=O)N4CCCC4)n(Cc4cccc5ccccc45)c3C[C@H]2CN1C(=O)c1ccccc1 ?
Output: 0.447

* * *

system: XIP peptide (Xip251-270) binding; assay: small-molecule binders of XIP peptide, primary screen, biochemical, small-molecule microarray, fluorescence 635/667 nm, 0.1 µg/mL protein (AID 1182); details: fluorescent protein binding, 635 nm, higher = more signal, called active from +8 up or from −8 down
The source made the active and inactive calls.
endpoint.name: composite z-score

Input: What measured composite z-score goes with C=CCN1C(=O)[C@@]2(CCS(=O)(=O)c3ccccc3)N=C(c3ccc(OCCCO)cc3)O[C@H]2c2ccccc21 ?
Output: 0.404 (inactive)

Input: What measured composite z-score goes with CCOC(=O)C[C@H]1[C@H](OC(=O)Cc2ccc3c(c2)OCO3)[C@@H](NC(=O)Cc2ccc(OC)cc2)c2cc(OCCCO)ccc2N1C(=O)c1ccc2ccccc2n1 ?
Output: -0.16 (inactive)

Input: What measured composite z-score goes with CC(C)C(=C=CC[C@H](O)c1ccc(OCCO)cc1)C[C@H](O)c1ccccn1 ?
Output: -0.0991 (inactive)

Input: What measured composite z-score goes with CC(C)(C)OC(=O)CC[C@]1(C(=O)NCc2ccccc2)N=C(c2ccc(OCCCO)cc2)O[C@H]1c1ccccc1CN=[N+]=[N-] ?
Output: 0.333 (inactive)

Input: What measured composite z-score goes with COC(=O)c1c(CC[C@@H](CO)NC(=O)N[C@H](Cn2cc(C3(O)CCCCC3)nn2)C(C)C)oc(C(C)=O)c1C(=O)OC ?
Output: 0.0887 (inactive)

Input: What measured composite z-score goes with COC(=O)[C@@]1(Cc2ccccc2)[C@H]2c3cc(C(=O)N(C)C)n(CCc4ccc(O)c(OC)c4)c3C[C@H]2CN1C(=O)c1ccccc1 ?
Output: 0.132 (inactive)

Input: What measured composite z-score goes with Cc1ccc(S[C@]2(C(=O)NCC(F)(F)F)CC(=O)N(Cc3ccccc3)[C@@H]2c2ccc(CO)cc2I)cc1 ?
Output: -0.0862 (inactive)
